Values compiled from patent US20130190324A1.

ASSAY_PROCEDURE: physchem
ASSAY_CONTEXT: water for injection
MEASUREMENT_NAME: solubility (µg/mL)

Examples from the recorded data:
| COMPOUND | solubility [µg/mL] |
| --- | --- |
| COc1c(N2CCNC(C)C2)c(F)cc2c(=O)c(C(=O)O)cn(C3CC3)c12 (stereo not shown) | 2500 |
| Cc1ccc(-c2cc(C(F)(F)F)nn2-c2ccc(S(=O)(=O)NC(=O)CCCN(C)C)cc2)cc1 | 3220 |

(A) COc1c(N2CCNC(C)C2)c(F)cc2c(=O)c(C(=O)NCCCC(=O)O)cn(C3CC3)c12 (stereo not shown)
(B) Cc1ccc(-c2cc(C(F)(F)F)nn2-c2ccc(S(=O)(=O)NC(=O)C(N)CCCNC(=N)N)cc2)cc1 (stereo not shown)
(C) COc1c(N2CCN(C(=O)C(N)CCCCN)C(C)C2)c(F)cc2c(=O)c(C(=O)O)cn(C3CC3)c12 (stereo not shown)
(D) COc1c(N2CCNC(C)C2)c(F)cc2c(=O)c(C(=O)NCCCN(C)C)cn(C3CC3)c12 (stereo not shown)
(E) Cc1ccc(-c2cc(C(F)(F)F)nn2-c2ccc(S(=O)(=O)NC(=O)CCCC(=O)O)cc2)cc1
Your job: order these 5 records by solubility, ascending. Write the labels out in the order the request specifies.
B, E, A, D, C
(B: 35 µg/mL, E: 620 µg/mL, A: 3010 µg/mL, D: 33300 µg/mL, C: 48000 µg/mL)
